In this section we review reported Kd values for a set of molecules.
- targetUnderTest: GDP-bound KRAS wild-type protein (Homo sapiens, UniProt P01116)
- Sequence (P01116 whole entry): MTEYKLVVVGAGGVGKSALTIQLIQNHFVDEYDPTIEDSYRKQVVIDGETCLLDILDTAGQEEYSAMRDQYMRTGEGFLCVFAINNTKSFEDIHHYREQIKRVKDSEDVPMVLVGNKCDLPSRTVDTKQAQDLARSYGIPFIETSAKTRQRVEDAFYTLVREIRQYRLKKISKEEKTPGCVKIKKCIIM
- test: Binding to KRAS by surface plasmon resonance (SPR), Single Cycle Kinetics
- settings: SPR, Single Cycle Kinetics, GDP-bound KRAS wild-type protein; read-out: KRAS KD
The answer is to be given in nM; state only the numeric part.

{"columns": ["molecule", "numericValue"],
 "data": [
  ["CCO[C@@H]1C[C@H]2C(=O)NC3(CC(C)(C)C3)C(=O)N(C)[C@@H](C(CC)CC)C(=O)N(C)[C@H](C(=O)N(C)C)CC(=O)N(C)[C@@H](C(C)C)C(=O)N[C@@H]([C@@H](C)CC)C(=O)N(C)CC(=O)N(C)[C@H]3C/C=C\\CCN(C3=O)[C@@H](CC3CCC(F)(F)CC3)C(=O)N(C)CC(=O)N[C@@H](CCc3ccc(C(F)(F)F)c(OC)c3)C(=O)N2C1 [PP2477]", 1.8],
  ["CC[C@H](C)[C@@H]1NC(=O)[C@H](CC(C)C)N(C)C(=O)C[C@@H](C(=O)N(C)C)N(C)C(=O)[C@H](C2CCCC2)N(C)C(=O)C2(CC(C)(C)C2)NC(=O)[C@@H]2C[C@H](C)CN2C(=O)[C@H](CCc2ccc(C(F)(F)F)c(OC)c2)NC(=O)CN(C)C(=O)[C@H](Cc2ccc(C)cc2)N2CC/C=C\\C[C@@H](C2=O)N(C)C(=O)[C@@H]2CCCN2C1=O [PP2409]", 0.48]
]}

**Q:** Give reported Kd value for CCO[C@@H]1C[C@H]2C(=O)NC3(CCC3)C(=O)N(C)[C@@H](C3CCCC3)C(=O)N(C)[C@H](C(=O)N3CCOCC3)CC(=O)N(C)[C@@H](CC)C(=O)N[C@@H]([C@@H](C)CC)C(=O)N(C)CC(=O)N(C)[C@H]3C/C=C\CCN(C3=O)[C@@H](Cc3ccc(C(F)(F)F)cc3)C(=O)N(C)CC(=O)N[C@@H](CCc3cc(F)c(C(F)(F)F)c(F)c3)C(=O)N2C1 [PP1092]
**A:** 0.15

**Q:** Give reported Kd value for CCCN(C)C(=O)[C@@H]1CC(=O)N(C)[C@@H](COC)C(=O)N[C@@H]([C@@H](C)CC)C(=O)N(C)CC(=O)N(C)[C@H]2C/C=C\CCN(C2=O)[C@@H](Cc2ccc(C(F)(F)F)cc2)C(=O)N(C)CC(=O)N[C@@H](CCc2cc(F)c(C(F)(F)F)c(F)c2)C(=O)N2C[C@H](OCC)C[C@H]2C(=O)NC2(CC(C)(C)C2)C(=O)N(C)[C@@H](C2CCCC2)C(=O)N1C [PP1672]
**A:** 0.087

**Q:** Give reported Kd value for CC[C@H](C)[C@@H]1NC(=O)[C@H](COC)N(C)C(=O)C[C@@H](C(=O)N(C)C)N(C)C(=O)[C@H](C2CCCC2)N(C)C(=O)C2(CC(C)(C)C2)NC(=O)[C@@H]2C[C@H](C)CN2C(=O)[C@H](CCc2ccc(C(F)(F)F)c(Cl)c2)NC(=O)CN(C)C(=O)[C@H](Cc2ccc(C)cc2)N2CC/C=C\C[C@@H](C2=O)N(C)C(=O)CN(C)C1=O [PP2502]
**A:** 0.065

**Q:** Give reported Kd value for CC[C@H](C)[C@@H]1NC(=O)[C@H](CC(C)C)N(C)C(=O)C[C@@H](C(=O)N(C)C)N(C)C(=O)[C@H](C2CCCC2)N(C)C(=O)C2(CC(C)(C)C2)NC(=O)[C@@H]2C[C@@H](C)CN2C(=O)[C@H](CCc2ccc(C(F)(F)F)c(OC)c2)NC(=O)CN(C)C(=O)[C@H](Cc2ccc(C)cc2)N2CC/C=C\C[C@@H](C2=O)N(C)C(=O)CN(C)C1=O [PP1908]
**A:** 0.11

* * *

- targetUnderTest: GDP-bound KRAS wild-type protein (Homo sapiens, UniProt P01116)
- test: Binding to KRAS by surface plasmon resonance (SPR), Single Cycle Kinetics
- settings: SPR Single Cycle Kinetics, GDP-bound KRAS wild-type protein, 1:1 binding model; read-out: KRAS KD
Where a SMILES comes first, the peptide text is derived from it. Bridges are numbered along the chain shown (N, C = ends). [ ]: non-standard residue; d: D form. The star is where a group is joined. hPhe(3-Cl-4-CF3) = N[C@@H](CCc1ccc(C(F)(F)F)c(Cl)c1)C(=O)O; NPrPhe(4-CF3) = CCCN[C@@H](Cc1ccc(C(F)(F)F)cc1)C(=O)O; 3Oxa8azabicyclo(3.2.1)octane = C1CC2COCC1N2*; NMeGly(cPent) = CN[C@H](C(=O)O)C1CCCC1; NMeD = CN[C@@H](CC(=O)O)C(=O)O; NMeL = CN[C@@H](CC(C)C)C(=O)O; Ac5c = NC1(C(=O)O)CCCC1; Sar = CNCC(=O)O
In this section we review reported Kd values for a set of compounds.
The answer is to be given in nM; state only the numeric part.

{"columns": ["compound", "units", "Kd"],
 "data": [
  ["CCC[C@H]1C(=O)N[C@@H]([C@@H](C)CC)C(=O)N(C)CC(=O)N(C)[C@H]2C/C=C\\CCN(C2=O)[C@@H](Cc2ccc(C(F)(F)F)cc2)C(=O)N(C)CC(=O)N[C@@H](CCc2ccc(C(F)(F)F)c(OC)c2)C(=O)N2CCOC[C@H]2C(=O)NC2(CC(C)(C)C2)C(=O)N(C)[C@@H](C(CC)CC)C(=O)N(C)[C@H](C(=O)N(C)C)CC(=O)N1C", "nM", 1.5]
]}

**Q:** Give reported Kd value for CCCN1C(=O)CN(C)C(=O)CN(C)C(=O)[C@H]([C@@H](C)CC)NC(=O)[C@H](CC(C)C)N(C)C(=O)C[C@@H](C(=O)N2C3CCC2COC3)N(C)C(=O)[C@H](C2CCCC2)N(C)C(=O)C2(CCCC2)NC(=O)[C@@H]2CCCN2C(=O)[C@H](CCc2ccc(C(F)(F)F)c(Cl)c2)NC(=O)CN(C)C(=O)[C@@H]1Cc1ccc(C(F)(F)F)cc1 [PP0173] ([NMeL]I[Sar][Sar][NPrPhe(4-CF3)][Sar][hPhe(3-Cl-4-CF3)]P[Ac5c][NMeGly(cPent)][NMeD]-{3Oxa8azabicyclo(3.2.1)octane}; lactam N-11)
**A:** 0.67

* * *

- targetUnderTest: UniProt P01116
- test: Binding to KRAS by surface plasmon resonance (SPR), Single Cycle Kinetics
- settings: SPR, Single Cycle Kinetics, GDP-bound KRAS wild-type protein; read-out: KRAS KD
Where a SMILES comes first, the peptide text is derived from it. Bridges are numbered along the chain shown (N, C = ends). [ ]: non-standard residue; d: D form. The star is where a group is joined. hPhe(3-Cl-4-CF3) = N[C@@H](CCc1ccc(C(F)(F)F)c(Cl)c1)C(=O)O; NPrPhe(4-CF3) = CCCN[C@@H](Cc1ccc(C(F)(F)F)cc1)C(=O)O; NMeGly(cPent) = CN[C@H](C(=O)O)C1CCCC1; NMeD = CN[C@@H](CC(=O)O)C(=O)O; NMeL = CN[C@@H](CC(C)C)C(=O)O; Morpholide = C1CN(*)CCO1; NMeA = CN[C@@H](C)C(=O)O; Ac4c = NC1(C(=O)O)CCC1; Sar = CNCC(=O)O
observedProperty: pKd
// field semantics: pKd = negative decimal log of concentration (mol/L)

These solved cases illustrate the format of a correct answer.
{"columns": ["compound", "targetUnderTest", "observedProperty", "numericValue"],
 "data": [
  ["CCCO[C@@H]1C[C@H]2C(=O)NC3(CC(C)(C)C3)C(=O)N(C)[C@@H](C3CCCC3)C(=O)N(C)[C@H](C(=O)N(C)CC)CC(=O)N(C)[C@H]3CCCc4ccc(cc4)C[C@@H](C(=O)N(C)CC(=O)N[C@@H](CCc4ccc(Cl)c(Cl)c4)C(=O)N2C1)N1CC/C=C\\C[C@@H](C1=O)N(C)C(=O)CN(C)C(=O)[C@H]([C@@H](C)CC)NC3=O", "UniProt P01116", "pKd", 9.48],
  ["CC[C@H](C)[C@@H]1NC(=O)[C@H](COC)N(C)C(=O)C[C@@H](C(=O)N2CCOCC2)N(C)C(=O)[C@H](C2CCCC2)N(C)C(=O)C2(CCCC2)NC(=O)[C@@H]2CCCN2C(=O)[C@H](CCc2cc(F)c(C(F)(F)F)c(F)c2)NC(=O)CN(C)C(=O)[C@H](Cc2ccc(C(F)(F)F)cc2)N2CCCCC[C@@H](C2=O)N(C)C(=O)CN(C)C1=O", "UniProt P01116", "pKd", 8.66],
  ["CCCOC[C@H]1C(=O)N[C@@H]([C@@H](C)CC)C(=O)N(C)CC(=O)N(C)[C@H]2C/C=C\\CCN(C2=O)[C@@H](Cc2ccc(C(F)(F)F)cc2)C(=O)N(C)CC(=O)N[C@@H](CCc2cc(F)c(C(F)(F)F)c(F)c2)C(=O)N2C[C@H](OCC)C[C@H]2C(=O)NC2(CC(F)(F)C2)C(=O)N(C)[C@@H](C2CCCC2)C(=O)N(C)[C@H](C(=O)N(C)CCC)CC(=O)N1C", "UniProt P01116", "pKd", 9.89],
  ["CCCN1C(=O)CN(C)C(=O)CN(C)C(=O)[C@H]([C@@H](C)CC)NC(=O)[C@H](CC(C)C)N(C)C(=O)C[C@@H](C(=O)N2CCOCC2)N(C)C(=O)[C@H](C2CCCC2)N(C)C(=O)C2(CCC2)NC(=O)[C@H](C)N(C)C(=O)[C@H](CCc2ccc(C(F)(F)F)c(Cl)c2)NC(=O)CN(C)C(=O)[C@@H]1Cc1ccc(C(F)(F)F)cc1 [PP1916] ([NMeL]I[Sar][Sar][NPrPhe(4-CF3)][Sar][hPhe(3-Cl-4-CF3)][NMeA][Ac4c][NMeGly(cPent)][NMeD]-Morpholide; lactam N-11)", "UniProt P01116", "pKd", 9.31],
  ["CCO[C@@H]1C[C@H]2C(=O)NC3(CC(C)(C)C3)C(=O)N(C)[C@@H](C(CC)CC)C(=O)N(C)[C@H](C(=O)N(C)C)CC(=O)N(C)[C@H]3CCCCCc4ccc(cc4)C[C@@H](C(=O)N(C)CC(=O)N[C@@H](CCc4ccc(C(F)(F)F)c(OC)c4)C(=O)N2C1)N1CC/C=C\\C[C@@H](C1=O)N(C)C(=O)CN(C)C(=O)[C@H]([C@@H](C)CC)NC3=O", "UniProt P01116", "pKd", 10.04]
]}

Alright, here's another compound for you.
**Q:** Give reported pKd value for CCCOC[C@H]1C(=O)N[C@@H]([C@@H](C)CC)C(=O)N(C)CC(=O)N(C)[C@H]2C/C=C\CCN(C2=O)[C@@H](CC2CCC(F)(F)CC2)C(=O)N(C)CC(=O)N[C@@H](CCc2ccc(C(F)(F)F)c(Cl)c2)C(=O)N2C[C@H](OCC)C[C@H]2C(=O)NC2(CC(C)(C)C2)C(=O)N(C)[C@@H](C(CC)CC)C(=O)N(C)[C@H](C(=O)N(C)C)CC(=O)N1C
**A:** 9.00
